- assayText: Cell viability assay (MTS)
- Assay type: cell-based, human
- measurementConditions: human; 24 h; read-out: 50% lethal concentration (LC50)
- Method: Human keratinocyte HaCaT cells were grown in DMEM/high glucose (Hyclone, UT) containing 10% fetal bovine serum (Mediatech, Corning, Manassas, VA). […] The mixture was incubated at 37° C. in 5% CO2 for 24 hours. HepG2 cells were cultured in ATCC-formulated Eagle's Minimum Essential Medium with 10% FBS. A549 cells were grown in ATCC-formulated F-12K Medium containing 10% FBS.
Where no end group is shown, it is not given here.
reportedEndpoint: CC50 at 24 h (µM)
Number in µM, nothing else.

Lookup: Supply CC50 at 24 h value. Item: RWKRFLRNWV-NH2 [RIK-10+]
Found: 100

====

- Tested on: S. aureus USA300 LAC
- assayText: microbe, parasite or virus in culture
- Format: cell-based, Staphylococcus aureus
- measurementConditions: USA300, pH 8.13; read-out: Antimicrobial activity (MIC)
Where no end group is shown, it is not given here.
Each entry below carries its reported MIC.
Number in µM, nothing else.

| substance | MIC [µM] |
| --- | --- |
| LWGRFFRKWK-NH2 [LL-10+] | 4 |
| RWKRFLRNWV-NH2 [RIK-10+] | 8 |
| RWWKKWWGK-NH2 [RK-9+] | 4 |

Then there is this substance:
Lookup: Supply MIC value. Item: KRWWQWWK-NH2 [KR-8+]
Found: 8

====

Each entry below carries its reported Hemolysis (HC10), 10% hemolytic concentration.
- System: human red blood cells
- assayText: Hemolytic assay
- Type: cell-based
- measurementConditions: red cells of human
Where no end group is shown, it is not given here.
Number in µM, nothing else.

| substance | readoutNumber |
| --- | --- |
| RWKRFLRNWV-NH2 [RIK-10+] | 220 |

Then there is this substance:
Lookup: Supply Hemolysis (HC10), 10% hemolytic concentration value. Item: KRWWQWWK-NH2 [KR-8+]
Found: 300
